Target: T1, ヒト組織因子経路インヒビター (human TFPI) (human, UniProt P10646 29-304, limits assumed)
T1 construct: Coated on Maxisorp plates (ELISA) or amine-coupled to a CM5 chip (Biacore); also called ヒトTFPI; hTFPI
T1 sequence (looked up): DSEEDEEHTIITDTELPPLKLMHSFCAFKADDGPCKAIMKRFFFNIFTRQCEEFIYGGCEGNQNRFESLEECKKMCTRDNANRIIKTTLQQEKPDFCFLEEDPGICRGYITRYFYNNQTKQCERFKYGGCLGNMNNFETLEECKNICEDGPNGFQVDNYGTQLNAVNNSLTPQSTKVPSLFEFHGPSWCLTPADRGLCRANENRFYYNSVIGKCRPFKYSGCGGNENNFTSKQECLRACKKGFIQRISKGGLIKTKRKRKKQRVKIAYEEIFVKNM
Experiment: ELISA, Fab in bacterial lysate on human TFPI-coated plate

{"columns": ["binder", "binding result"],
 "data": [
  ["TP-3B3 (Fab, V domains shown, Human Fab (HuCal Gold), made in E. coli TG1) VH: QVQLVESGGGLVQPGGSLRLSCAASGFTFSSYGMHWVRQAPGKGLEWVSNISYMGSNTNYADSVKGRFTISRDNSKNTLYLQMNSLRAEDTAVYYCARGLFPGYFDYWGQGTLVTVSS VL: DIELTQPASVSVAPGQTARISCSGDNLRSKYAHWYQQKPGQAPVLVIYGDNNRPSGIPERFSGSNSGNTATLTISGTQAEDEADYYCSAYAMGSSPVFGGGTKLTVLG", "binds"],
  ["TP-2B4 (Fab, V domains shown, Human Fab (HuCal Gold), made in E. coli TG1) VH: QVQLVESGGGLVQPGGSLRLSCAASGFTFSNYSMTWVRQAPGKGLEWVSGISYNGSNTYYADSVKGRFTISRDNSKNTLYLQMNSLRAEDTAVYYCARIYYMNLLAGWGQGTLVTVSS VL: DIELTQPPSVSVAPGQTARISCSGDALGTYYAYWYQQKPGQAPVLVIYGDMNRPSGIPERFSGSNSGNTATLTISGTQAEDEADYYCQSYDAGVKPAVFGGGTKLTVLG", "binds"]
]}
